Entry source: ChEMBL document CHEMBL2396601

# System: Plasmodium falciparum
# assay_method_text: Antiprotozoal activity against chloroquine-resistant Plasmodium falciparum K1 after 48 hrs by [3H]-hypoxanthine incorporation assay
# Format: functional, organism-based
assay_metric: IC50 (nM)
Kindly provide the numeric value in nM only, without the unit symbol.

Exercise: Please give the measured IC50 for this compound: Cl.N=C(N)c1ccc(-c2cccc(-c3ccc(C(=N)N)cn3)c2)nc1
Solution: 40

----------
Entries annotated with measured MSD
# Tested on: Trypanosoma brucei rhodesiense
# assay_method_text: Antiprotozoal activity against Trypanosoma brucei rhodesiense STIB900 infected in NMRI mouse assessed as host mean survival days at 5 mg/kg, ip qd for 4 days
# Type: functional
# condition_parameters: route intraperitoneal
Kindly provide the numeric value in days only, without the unit symbol.

# count of solved cases: 6
Cl.Cl.c1cc(-c2ccc(C3=NCCN3)cc2)cc(-c2ccc(C3=NCCN3)cc2)c1 ... 9.25
CC(C)NC(=N)c1ccc(-c2cccc(-c3ccc(C(=N)NC(C)C)cc3)c2)cc1.Cl.Cl ... 13.5
Cl.Cl.N=C(N)c1ccc(-c2cc(-c3ccc(C(=N)N)cc3)cc([N+](=O)[O-])c2)cc1 ... 20
COc1cc(-c2cccc(C(=N)N)c2)cc(-c2cccc(C(=N)N)c2)c1.Cl.Cl ... 10
Cl.Cl.Cl.N=C(N)c1ccc(-c2cc(Cl)cc(-c3ccc(C(=N)N)cc3)c2)cc1 ... 15.25
Cl.Cl.N=C(N)c1ccc(-c2cccc(-c3cccc(C(=N)N)c3)c2)cc1 ... 34.75

Next item in the queue.
Exercise: Please give the measured MSD for this compound: Cl.Cl.N=C(N)c1cccc(-c2cccc(-c3cccc(C(=N)N)c3)c2)c1
Solution: 18.5

----------
Entries annotated with measured pIC50
# Tested on: Plasmodium falciparum
# assay_method_text: Antiprotozoal activity against chloroquine-resistant Plasmodium falciparum K1 after 48 hrs by [3H]-hypoxanthine incorporation assay
# Format: functional, organism-based
# condition_parameters: Plasmodium falciparum, K1
Worth noting: pIC50 values are minus log10 of concentrations stated in mol/L.

# count of solved cases: 5
CC1(C)CN=C(c2cccc(-c3cccc(-c4cccc(C5=NCC(C)(C)CN5)c4)c3)c2)NC1 ... 8.22
CC1(C)CN=C(c2ccc(-c3cccc(-c4ccc(C5=NCC(C)(C)CN5)cc4)c3)cc2)NC1 ... 8.70
Cl.Cl.N=C(N)c1cccc(-c2cccc(-c3cccc(C(=N)N)c3)c2)c1 ... 7.42
Cl.Cl.N=C(N)c1ccc(-c2cccc(-c3cccc(C(=N)N)c3)c2)cc1 ... 7.82
CC(C)NC(=N)c1ccc(-c2cccc(-c3ccc(C(=N)NC(C)C)cc3)c2)cc1.Cl.Cl ... 7.80

Exercise: Please give the measured pIC50 for this molecule: Cl.Cl.N=C(N)c1ccc(-c2cccc(-c3ccc(C(=N)N)cc3)c2)cc1
Solution: 7.62

Exercise: Please give the measured pIC50 for this molecule: N=C(Nc1cccc(-c2cc(Cl)cc(-c3cccc(NC(=N)c4ccccc4)c3)c2)c1)c1ccccc1
Solution: 7.15

Exercise: Please give the measured pIC50 for this molecule: COc1cc(-c2ccc(C(=N)N)cc2)cc(-c2ccc(C(=N)N)cc2)c1.Cl.Cl
Solution: 7.32

Exercise: Please give the measured pIC50 for this molecule: N=C(Nc1ccc(-c2cc(Cl)cc(-c3cccc(NC(=N)c4ccccc4)c3)c2)cc1)c1ccccc1
Solution: 7.41

----------
# assay_method_text: Selectivity index, ratio of IC50 for rat L6 cells to IC50 for Plasmodium falciparum K1
# Format: toxicity, cell-based
# condition_parameters: L6 cells, read-out: Ratio IC50
assay_metric: selectivity ratio
In your answer, state the number alone without any accompanying words.

Exercise: Please give the measured selectivity ratio for this molecule: N=C(Nc1ccc(-c2cc(Cl)cc(-c3cccc(NC(=N)c4ccccc4)c3)c2)cc1)c1ccccc1
Solution: 58

Exercise: Please give the measured selectivity ratio for this molecule: N=C(N)c1ccc(-c2cc(Cl)cc(-c3cccc(C(=N)N)c3)c2)cc1
Solution: 1250

Exercise: Please give the measured selectivity ratio for this molecule: CC1(C)CN=C(c2ccc(-c3cccc(-c4ccc(C5=NCC(C)(C)CN5)cc4)c3)cc2)NC1
Solution: 49300

Exercise: Please give the measured selectivity ratio for this molecule: N=C(Nc1ccc(-c2cccc(-c3cccc(NC(=N)c4ccccc4)c3)c2)cc1)c1ccccc1
Solution: 66

----------
# Test system: Trypanosoma brucei rhodesiense
# assay_method_text: Antiprotozoal activity against Trypanosoma brucei rhodesiense STIB900 after 72 hrs by Alamar Blue assay
# Assay type: functional, organism-based
# condition_parameters: Trypanosoma brucei, STIB900, 72 h
Entries annotated with measured pIC50
Worth noting: pIC50 values are minus log10 of concentrations stated in mol/L.

Cl.Cl.Cl.N=C(N)c1ccc(-c2cc(Cl)cc(-c3ccc(C(=N)N)cc3)c2)cc1 ... 7.51
CC(C)Oc1cc(NC(=N)c2ccccn2)ccc1-c1cc(Cl)cc(-c2ccccc2)c1 ... 4.49
CC(C)NC(=N)c1cccc(-c2cccc(-c3cccc(C(=N)NC(C)C)c3)c2)c1 ... 6.21
CC1(C)CN=C(c2ccc(-c3cccc(-c4ccc(C5=NCC(C)(C)CN5)cc4)c3)cc2)NC1 ... 6.85
Cl.Cl.N=C(N)c1cccc(-c2cccc(-c3cccc(C(=N)N)c3)c2)c1 ... 7.26
N=C(N)c1ccc(-c2ccc(-c3ccc(C(=N)N)cc3)o2)cc1 ... 8.52
Cl.Cl.N=C(N)c1ccc(-c2cccc(-c3cccc(C(=N)N)c3)c2)cc1 ... 7.28
Cl.Cl.N=C(N)c1ccc(-c2cc(N)cc(-c3ccc(C(=N)N)cc3)c2)cc1 ... 8.40

Next item in the queue.
Exercise: Please give the measured pIC50 for this compound: COc1cc(-c2cccc(C(=N)N)c2)cc(-c2cccc(C(=N)N)c2)c1.Cl.Cl
Solution: 7.54

----------
# assay_method_text: Selectivity index, ratio of IC50 for rat L6 cells to IC50 for Trypanosoma brucei rhodesiense STIB900
# Format: toxicity, cell-based
# condition_parameters: L6 cells, read-out: Ratio IC50
Entries annotated with measured selectivity ratio
In your answer, state the number alone without any accompanying words.

CC1(C)CN=C(c2ccc(-c3cccc(-c4ccc(C5=NCC(C)(C)CN5)cc4)c3)cc2)NC1 ... 871
N=C(Nc1ccc(-c2cccc(-c3cccc(NC(=N)c4ccccc4)c3)c2)cc1)c1ccccc1 ... 4
Cl.Cl.N/C(=N\O)c1cccc(-c2cccc(-c3cccc(/C(N)=N\O)c3)c2)c1 ... 2
N=C(N)c1ccc(-c2cc(Cl)cc(-c3cccc(C(=N)N)c3)c2)cc1 ... 130
Cl.Cl.Cl.N=C(Nc1cccc(-c2cc(Cl)cc(-c3cccc(NC(=N)c4ccccn4)c3)c2)c1)c1ccccn1 ... 133

Next item in the queue.
Exercise: Please give the measured selectivity ratio for this molecule: Cl.Cl.Cl.N=C(N)c1ccc(-c2cc(Cl)cc(-c3ccc(C(=N)N)cc3)c2)cc1
Solution: 700

----------
Entries annotated with measured IC50
# Test system: Trypanosoma brucei rhodesiense
# assay_method_text: Antiprotozoal activity against Trypanosoma brucei rhodesiense STIB900 after 72 hrs by Alamar Blue assay
# Assay type: functional, organism-based
# condition_parameters: Trypanosoma brucei, STIB900, 72 h
Kindly provide the numeric value in nM only, without the unit symbol.

# count of solved cases: 2
Cl.Cl.c1cc(-c2ccc(C3=NCCN3)cc2)cc(-c2ccc(C3=NCCN3)cc2)c1 ... 68
Cl.Cl.Cl.N=C(Nc1cccc(-c2cc(Cl)cc(-c3cccc(NC(=N)c4ccccn4)c3)c2)c1)c1ccccn1 ... 19

Exercise: Please give the measured IC50 for this compound: N=C(N)c1ccnc(-c2cccc(-c3cc(C(=N)N)ccn3)c2)c1
Solution: 1170

Exercise: Please give the measured IC50 for this compound: CC1(C)CN=C(c2ccc(-c3cc(-c4ccc(C5=NCC(C)(C)CN5)cc4)cc([N+](=O)[O-])c3)cc2)NC1
Solution: 692

Exercise: Please give the measured IC50 for this compound: Cl.Cl.N=C(N)c1ccc(-c2cccc(-c3ccc(C(=N)N)cc3)c2)cc1
Solution: 4

----------
# assay_method_text: Selectivity index, ratio of IC50 for rat L6 cells to IC50 for Trypanosoma cruzi Tulahuen C2C4
# Assay type: toxicity, cell-based
# condition_parameters: read-out: Ratio IC50
assay_metric: selectivity ratio
In your answer, state the number alone without any accompanying words.

# count of solved cases: 4
COc1cc(-c2cccc(C(=N)N)c2)cc(-c2cccc(C(=N)N)c2)c1.Cl.Cl ... 2
Cl.Cl.N=C(Nc1ccc(-c2cccc(-c3cccc(NC(=N)c4ccccn4)c3)c2)cc1)c1ccccn1 ... 7
N=C(Nc1ccc(-c2cc(Cl)cc(-c3cccc(NC(=N)c4ccccc4)c3)c2)cc1)c1ccccc1 ... 1
Cl.Cl.Cl.N=C(Nc1cccc(-c2cc(Cl)cc(-c3cccc(NC(=N)c4ccccn4)c3)c2)c1)c1ccccn1 ... 47

Next item in the queue.
Exercise: Please give the measured selectivity ratio for this molecule: Cl.Cl.N=C(N)c1cccc(-c2cccc(-c3cccc(C(=N)N)c3)c2)c1
Solution: 4

----------
Entries annotated with measured selectivity ratio
# assay_method_text: Selectivity index, ratio of IC50 for rat L6 cells to IC50 for Trypanosoma cruzi Tulahuen C2C4
# Assay type: toxicity, cell-based
# condition_parameters: read-out: Ratio IC50

# count of solved cases: 6
Cl.Cl.N=C(N)c1ccc(-c2cc(-c3ccc(C(=N)N)cc3)cc([N+](=O)[O-])c2)cc1 ... > 2
Cl.Cl.Cl.N=C(N)c1ccc(-c2cc(Cl)cc(-c3ccc(C(=N)N)cc3)c2)cc1 ... < 1
N=C(N)c1cccc(-c2cc(Cl)cc(-c3cccc(C(=N)N)c3)c2)c1 ... < 1
COc1cc(-c2ccc(C(=N)N)cc2)cc(-c2ccc(C(=N)N)cc2)c1.Cl.Cl ... < 1
CC(C)Oc1cc(NC(=N)c2ccccn2)ccc1-c1cc(Cl)cc(-c2ccccc2)c1 ... 2
Cl.Cl.N=C(N)c1ccc(-c2cc(O)cc(-c3ccc(C(=N)N)cc3)c2)cc1 ... < 1

Exercise: Please give the measured selectivity ratio for this molecule: Cl.Cl.Cl.N=C(Nc1ccc(-c2cc(Cl)cc(-c3cccc(NC(=N)c4ccccn4)c3)c2)cc1)c1ccccn1
Solution: 2

Exercise: Please give the measured selectivity ratio for this molecule: Cl.Cl.c1cc(-c2ccc(C3=NCCN3)cc2)cc(-c2ccc(C3=NCCN3)cc2)c1
Solution: < 1

Exercise: Please give the measured selectivity ratio for this molecule: CN(C)CC(=O)O/N=C(\N)c1ccc(-c2cccc(-c3ccc(/C(N)=N\OC(=O)CN(C)C)cn3)c2)nc1
Solution: < 1
